# ASSAY: Plasma AMG 232 pharmacokinetics (HPLC-MS, non-compartmental analysis)
# Assay type: in vivo, human
# RUN_CONDITIONS: human, plasma, oral, 480 mg, Day 7, dose escalation, 480 mg (n = 5–6); read-out: Vz/F, mean (SD)
OBSERVATION_TYPE: Vd/F (L)
Respond with the bare value in L.

Report Vd/F for CC(C)[C@@H](CS(=O)(=O)C(C)C)N1C(=O)[C@@](C)(CC(=O)O)C[C@H](c2cccc(Cl)c2)[C@H]1c1ccc(Cl)cc1 please.
585

###

# ASSAY: Plasma AMG 232 pharmacokinetics (HPLC-MS, non-compartmental analysis)
# Type: in vivo, human
# RUN_CONDITIONS: human, plasma, oral, 480 mg, Day 7, dose escalation, 480 mg (n = 5–6); read-out: AUC24h, mean (SD)
OBSERVATION_TYPE: AUC(0-t)

Report AUC(0-t) for CC(C)[C@@H](CS(=O)(=O)C(C)C)N1C(=O)[C@@](C)(CC(=O)O)C[C@H](c2cccc(Cl)c2)[C@H]1c1ccc(Cl)cc1 [AMG 232] please.
18400 ng·h/mL
